experiment: RP, Merck Supelco Ascentis Express C18, 100 × 2.1 mm, 2 µm, 39 °C, 0.3 mL/min, estimated dead time 0.73 min; A: water + 0.1% formic acid, pH 3; B: acetonitrile + 0.1% formic acid, pH 3; gradient (min/%B) 0/5 2/5 17/99.9 20/99.9; settings: stereoisomer not certain
Using LC retention time as the sorting value, the categories are low bracket (below 3 min), middle bracket (3 min to below 6 min), high bracket (6 min or more)

Worked examples, 3 compounds total:
- Compound: "CC(C)(CO)C(O)C(=O)NCCC(=O)O (stereo not drawn) [PANTOTHENATE]"
  Category Label: "low bracket"
- Compound: "CC12CCC(=O)C=C1CCC1C2C(O)CC2(C)C1CCC2(O)C(=O)CO (stereo not drawn)"
  Category Label: "high bracket"
- Compound: "O=C(O)c1cccc(O)c1O [2,3-DIHYDROXYBENZOATE]"
  Category Label: "low bracket"

Query compound follows.
*Q* GET /class?item= CCC=CCC1C(=O)CCC1CC(=O)OC (stereo not drawn) [METHYL JASMONATE]
*A* high bracket
